Origin of values: PubChem BioAssay

assay: drug combination growth inhibition, ovarian cancer – cell-based, oncology-focused library, rucaparib conditional, profiling panel (AID 1508598); settings: patient-derived ovarian cancer cells, CellTiter-Glo viability, 144 h; at 0.313 µM; OCI-C5x cells; without rucaparib
Calls of active or inactive are those of the source.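 Rule for the calls: active = normalized viability below 100% at a tested concentration; inactive = the rest.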
Select the matching outcome among active, inactive

| compound | label-value |
| --- | --- |
| CNC(=O)c1cc(COc2nnc(Nc3ccc(Cl)cc3)c3ccoc23)ccn1 | inactive |
| O=C(Nc1ccccc1-c1cn2c(CN3CCNCC3)csc2n1)c1cnc2ccccc2n1 | inactive |
| Cc1ccc(C(=O)N(CCCN)[C@@H](c2oc3cc(Cl)ccc3c(=O)c2Cc2ccccc2)C(C)C)cc1 | active |
| C#Cc1cccc(Nc2ncnc3cc(OC)c(OCCCCCCC(=O)NO)cc23)c1 | active |

Tell me the recorded outcome of this test for CN(C)Cc1ccc(-c2nc3cccc4c3n2CCNC4=O)cc1 .
inactive

Tell me the recorded outcome of this test for CCN(CCO)CCCOc1ccc2c(Nc3cc(CC(=O)Nc4cccc(F)c4)[nH]n3)ncnc2c1 .
active
